I'd appreciate it if you could supply TGI values for the items below.
Tested on: K-562 leukemia
Protocol text: NCI tumour cell line growth inhibition, 48 h

Documented TGI of CC(C(=O)N1c2ccccc2Sc2ccccc21)N1c2ccccc2Sc2ccccc21 (stereo not drawn) : > 100 µM

Documented TGI of CSc1ccc(/C=C2/C[N+](C)(C)C/C(=C/c3ccc(SC)cc3)C2=O)cc1 : > 100 µM

Documented TGI of O=C(CNc1ccc(Cl)cc1)Nn1c(-c2ccccc2)nc2ccccc2c1=O : 14.3 µM

Documented TGI of COc1ccc(OC(=O)O[C@H]2[C@H](O[C@H]3[C@@H](O)COC(O[C@H]4C[C@H]5[C@@H]6CC=C7C[C@@H](O)CC[C@]7(C)[C@H]6CC[C@]5(C)[C@H]4[C@H](C)C(=O)CCC(C)C)[C@@H]3OC(C)=O)OC[C@@H](O)[C@@H]2O)cc1 (stereo partly drawn) : 10.6 µM

Documented TGI of O=c1[nH]nc(-c2cccc(Br)c2)[nH]1 : > 100 µM

Documented TGI of O=C1NC(Nc2cccc(Cl)c2)=N/C1=C\c1ccc(Cl)c(Cl)c1 : 14.5 µM

Documented TGI of CC[C@H](C)[C@H](NC(=O)[C@H]1CCCCN1C)C(=O)N(C)[C@H](CCc1nc(C(=O)N[C@@H](Cc2ccccc2)C[C@H](C)C(=O)OC)cs1)C(C)C : > 25 µM

Documented TGI of CCOC(=O)[C@H]1Nc2ccc(C)cc2C2c3ccccc3CC21 (stereo partly drawn) : > 100 µM
